Tested on: HEK293 cells
Assay: Preliminary screening as mRNA vectors, EGFP mRNA transfection of HEK293 cells
Assay type: cell-based
Settings: EGFP mRNA 50 ng per well, 96-well plates; percentage of GFP fluorescent cells relative to total number of cells (Hoechst)
Below is a list of entries, each paired with its recorded Absolute mRNA transfection efficiency in HEK293 cells value.
readout-kind: Absolute mRNA transfection efficiency in HEK293 cells (%)

smiles-str | tgt | unit-abbreviation | result
CCCCCCCCSc1nc(NCCCCCCC)nc(NCCCN(C)C)n1 | HEK293 cells | % | 4.3
CCCCCCCCCCCCSc1nc(NCCCN(C)C)nc(SCCCCCCCC)n1 | HEK293 cells | % | 61.9
CCCCCCCCSc1nc(NCCCN2CCOCC2)nc(SCCCCCC)n1 | HEK293 cells | % | 0.2
CCCCCCCCCCCCCCCCSc1nc(NCCCCCCCC)nc(NCCN2CCCC2)n1 | HEK293 cells | % | 97.7
CCCCCCCCCCCCCCCCCCNc1nc(NCCCN(C)C)nc(SCCCCCCCCCCCCCCCC)n1 | HEK293 cells | % | 0.0
CCCCCCCCSc1nc(NCCCCCCC)nc(NCCN2CCCC2)n1 | HEK293 cells | % | 0.7
CCCCCCCCCCCCCCCCCCNc1nc(NCCCN2CCOCC2)nc(SCCCCCCCCCCCCCC)n1 | HEK293 cells | % | 0.3
CCCCCCCCCCCSc1nc(NCCCCCC)nc(NCCN2CCCC2)n1 | HEK293 cells | % | 18.1
CCCCCCCCCSc1nc(NCCCCCCC)nc(NCCN2CCOCC2)n1 | HEK293 cells | % | 4.2
CCCCCCCCCCCCCCCCNc1nc(NCCN(C)C)nc(SCCCCCCCCCCCCCC)n1 | HEK293 cells | % | 1.8
CCCCCCCCCCCCCCCCSc1nc(NCCCCCCCCCCCCCCC)nc(NCCN(CC)CC)n1 | HEK293 cells | % | 1.1
CCCCCCCCCCCCCCCSc1nc(NCCCCCCCCC)nc(NCCN(CC)CC)n1 | HEK293 cells | % | 9.4
CCCCCCCCCCCCCCCCNc1nc(NCC2CCN(C)CC2)nc(SCCCCCCCCCCCCCCC)n1 | HEK293 cells | % | 6.1
CCCCCCCNc1nc(NCCCN2CCN(C)CC2)nc(SCCCCCC)n1 | HEK293 cells | % | 2.6
CCCCCCCCSc1nc(NCCCCCCC)nc(NCCCN2CCOCC2)n1 | HEK293 cells | % | 0.1
CCCCCCCCCCCCCCCNc1nc(NCCN2CCCC2)nc(SCCCCCCCCCCCC)n1 | HEK293 cells | % | 1.5
CCCCCCCCCCCCCCSc1nc(NCCN2CCN(C)CC2)nc(N(CCCCCCCCCCCC)CCCCCCCCCCCC)n1 | HEK293 cells | % | 0.9
CCCCCCCCCCCCCCSc1nc(NCCCCCC)nc(NCCN2CCCC2)n1 | HEK293 cells | % | 66.7
CCCCCCCCCCCCCCCCCCNc1nc(NCCCN2CCOCC2)nc(SCCCCCCCCCCCCCCC)n1 | HEK293 cells | % | 0.4
CCCCCCCCCCCCCCCCNc1nc(NCC2CCN(C)CC2)nc(SCCCCCCC)n1 | HEK293 cells | % | 44.3
CCCCCCCSc1nc(NCCCCCC)nc(NCCCN2CCOCC2)n1 | HEK293 cells | % | 1.8
CCCCCCCCCCCCCCCCCCSc1nc(NCCCCCCC)nc(NCCN2CCOCC2)n1 | HEK293 cells | % | 1.0
CCCCCCCCCCCCCCCCSc1nc(NCCCCCCCCC)nc(NCCCN(C)C)n1 | HEK293 cells | % | 76.1
CCCCCCCCCCCSc1nc(NCCCCCCCC)nc(NCCN(CC)CC)n1 | HEK293 cells | % | 13.4
